In this section we review reported pIC50 values for a set of compounds.
System: 945468-187-T-J2-PDC spheroids viability;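 further: spheroids exposed to compounds for seven days before reading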
Assay: Anticancer human tumor 945468-187-T-J2-PDC patient-derived rectal carcinoma cell line growth inhibition [PI3K]
Conditions: curve of first compound; second compound 0.0316 µM; spheroids with HUVEC and MSC
pIC50: −log10 of the molar value.

{"columns": ["compound", "pIC50"],
 "data": [
  ["CC(=O)c1c(C)c2cnc(Nc3ccc(N4CCNCC4)cn3)nc2n(C2CCCC2)c1=O + CC(Nc1ccc2c(c1)OCCn1cc(N3C(=O)OCC3C(F)F)nc1-2)C(N)=O", "< 7.00"]
]}

Value lookup for pIC50; key = C#Cc1c(F)ccc2cc(O)cc(-c3ncc4c(N5CC6CCC(C5)N6)nc(OCC56CCCN5CC(F)C6)nc4c3F)c12 (stereo not drawn) + COc1c(OCCCN2CCOCC2)ccc2c3n(c(=NC(=O)c4cnc(N)nc4)nc12)CCN3
< 5.00

Value lookup for pIC50; key = CCN1CCN(Cc2ccc(Nc3ncc(F)c(-c4cc(F)c5nc(C)n(C(C)C)c5c4)n3)nc2)CC1 + Cc1nc(NC(=O)N2CCCC2C(N)=O)sc1-c1ccnc(C(C)(C)C(F)(F)F)c1
< 6.00

Value lookup for pIC50; key = CC(Cn1ccc(-c2ccc(C#N)c(Cl)c2)n1)NC(=O)c1cc(C(C)O)[nH]n1 (stereo not drawn) + CC(Nc1ncnc2nc[nH]c12)c1cc2cccc(Cl)c2c(=O)n1-c1ccccc1
< 5.00

Value lookup for pIC50; key = Cn1cnc2c(F)c(Nc3ccc(Br)cc3Cl)c(C(=O)NOCCO)cc21 + CC(Nc1ccc2c(c1)OCCn1cc(N3C(=O)OCC3C(F)F)nc1-2)C(N)=O
< 5.52

Value lookup for pIC50; key = CNC(=O)c1ccc(N2C(=S)N(c3ccc(C#N)c(C(F)(F)F)c3)C(=O)C2(C)C)cc1F + CC(Nc1ccc2c(c1)OCCn1cc(N3C(=O)OCC3C(F)F)nc1-2)C(N)=O
< 5.00

Value lookup for pIC50; key = CCCS(=O)(=O)Nc1ccc(F)c(C(=O)c2c[nH]c3ncc(-c4ccc(Cl)cc4)cc23)c1F + CC(Nc1ncnc2nc[nH]c12)c1cc2cccc(Cl)c2c(=O)n1-c1ccccc1
5.34

Value lookup for pIC50; key = CC1(C)CCC(CN2CCN(c3ccc(C(=O)NS(=O)(=O)c4ccc(NCC5CCOCC5)c([N+](=O)[O-])c4)c(Oc4cnc5[nH]ccc5c4)c3)CC2)=C(c2ccc(Cl)cc2)C1 + Cc1nc(NC(=O)N2CCCC2C(N)=O)sc1-c1ccnc(C(C)(C)C(F)(F)F)c1
< 5.00
